- SUBJECT OF TEST: Transient receptor potential cation channel subfamily M member 2 (Homo sapiens, UniProt O94759)
- Sequence (O94759 whole entry): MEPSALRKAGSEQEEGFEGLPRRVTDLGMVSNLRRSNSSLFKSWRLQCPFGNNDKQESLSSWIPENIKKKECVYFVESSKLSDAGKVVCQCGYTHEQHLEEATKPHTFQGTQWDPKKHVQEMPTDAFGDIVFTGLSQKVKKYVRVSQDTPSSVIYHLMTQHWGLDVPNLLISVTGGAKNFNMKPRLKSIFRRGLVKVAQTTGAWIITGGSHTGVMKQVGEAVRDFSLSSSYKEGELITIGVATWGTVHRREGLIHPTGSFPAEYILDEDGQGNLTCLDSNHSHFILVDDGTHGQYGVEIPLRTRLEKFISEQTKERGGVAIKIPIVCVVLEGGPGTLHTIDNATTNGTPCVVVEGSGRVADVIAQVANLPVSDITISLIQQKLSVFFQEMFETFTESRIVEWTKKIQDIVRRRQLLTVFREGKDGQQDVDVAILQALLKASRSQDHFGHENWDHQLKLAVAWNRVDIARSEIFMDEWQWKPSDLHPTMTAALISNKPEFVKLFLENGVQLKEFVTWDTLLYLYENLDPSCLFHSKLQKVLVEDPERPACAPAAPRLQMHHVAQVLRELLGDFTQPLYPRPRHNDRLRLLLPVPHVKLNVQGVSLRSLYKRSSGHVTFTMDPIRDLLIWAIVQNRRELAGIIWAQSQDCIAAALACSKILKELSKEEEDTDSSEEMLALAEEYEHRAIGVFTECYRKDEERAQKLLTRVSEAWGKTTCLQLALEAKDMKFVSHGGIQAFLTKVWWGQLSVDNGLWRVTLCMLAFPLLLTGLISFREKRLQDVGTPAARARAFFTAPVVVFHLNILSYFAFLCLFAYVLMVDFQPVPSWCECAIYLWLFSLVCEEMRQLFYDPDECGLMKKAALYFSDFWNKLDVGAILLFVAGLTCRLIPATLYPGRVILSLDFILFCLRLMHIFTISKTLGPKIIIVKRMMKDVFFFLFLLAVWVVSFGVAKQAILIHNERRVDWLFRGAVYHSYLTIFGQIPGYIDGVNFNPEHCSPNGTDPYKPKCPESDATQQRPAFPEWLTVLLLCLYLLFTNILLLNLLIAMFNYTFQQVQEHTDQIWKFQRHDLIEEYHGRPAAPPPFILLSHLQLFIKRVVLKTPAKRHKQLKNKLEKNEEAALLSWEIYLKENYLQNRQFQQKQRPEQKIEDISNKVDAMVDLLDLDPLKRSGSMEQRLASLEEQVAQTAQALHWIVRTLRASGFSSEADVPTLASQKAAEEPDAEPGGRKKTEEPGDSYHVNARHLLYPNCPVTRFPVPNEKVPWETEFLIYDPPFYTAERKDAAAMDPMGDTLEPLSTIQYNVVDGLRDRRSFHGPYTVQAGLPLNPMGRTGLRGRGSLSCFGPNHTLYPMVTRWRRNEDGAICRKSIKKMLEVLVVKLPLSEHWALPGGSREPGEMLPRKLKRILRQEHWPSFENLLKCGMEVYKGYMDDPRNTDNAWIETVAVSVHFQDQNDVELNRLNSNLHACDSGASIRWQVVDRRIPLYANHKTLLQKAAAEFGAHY
- ASSAY: Inhibition of TRPM2 (unknown origin) expressed in HEK293 cells assessed as inhibition of ADP-ribose-induced current by patch clamp technique
- Format: cell-based
MEASURE NAME: IC50 (nM)

SUBSTANCE	REPORTED MEASUREMENT
COPPER	2600

----------
Collected IC50 values appear next to each entry.
- SUBJECT OF TEST: Transient receptor potential cation channel subfamily M member 2 (Homo sapiens)
- ASSAY: Inhibition of human recombinant TRPM2
MEASURE NAME: IC50

SMILES STR	REPORTED MEASUREMENT
O=C(O)c1cccnc1Nc1cccc(C(F)(F)F)c1	149 µM
Cc1cccc(Nc2ccccc2C(=O)O)c1C	124 µM
O=C(O)c1ccccc1Nc1cccc(C(F)(F)F)c1	70 µM

----------
- SUBJECT OF TEST: Transient receptor potential cation channel subfamily M member 2 (Homo sapiens)
- ASSAY: Inhibition of human TRPM2 expressed in HEK293 cells assessed as inhibition of H2O2-induced intracellular calcium level by patch clamp technique
- Assay type: cell-based
pIC50: −log10 of the molar value.

SMILES STR	pIC50
CCCCCc1ccc(/C=C/C(=O)Nc2ccccc2C(=O)O)cc1	5.77

----------
- SUBJECT OF TEST: Transient receptor potential cation channel subfamily M member 2 (Homo sapiens)
- ASSAY: Inhibition of human TRPM2 expressed in HEK293 cells assessed as inhibition of ADP-ribose-induced current by patch clamp electrophysiology
- Type: cell-based
MEASURE NAME: IC50

SMILES STR	SUBJECT OF TEST	MEASURE NAME	REPORTED MEASUREMENT
Cc1cccc(Nc2ccccc2C(=O)O)c1	Transient receptor potential cation channel subfamily M member 2 (Homo sapiens)	IC50	76 µM

----------
- SUBJECT OF TEST: Transient receptor potential cation channel subfamily M member 2 (Homo sapiens)
- ASSAY: Antagonist activity at human TRPM2 expressed in HEK293 cells assessed as partial inhibition of ADPR-induced maximum outward potassium current at +15 mV by whole-cell patch-clamp electrophysiology
- Format: cell-based

SMILES STR	IC50
Nc1ncnc2c1ncn2[C@@H]1O[C@H](COP(=O)(O)OP(=O)(O)OC2CCCC2)[C@@H](O)[C@H]1O	< 900 µM

----------
- SUBJECT OF TEST: UniProtKB O94759
- ASSAY: Antagonist activity at human TRPM2 expressed in HEK293 cells assessed as inhibition of ADPR-induced maximum outward potassium current at 100 uM at +15 mV by whole-cell patch-clamp electrophysiology
- Assay type: cell-based
The source made the active and inactive calls. The calls are words filed in the database; no cut-off is given here.
Labels: active, inactive

MOLECULE	SUBJECT OF TEST	ASSIGNED LABEL
Nc1ncnc2c1nc(-c1ccc(CC(N)C(=O)O)cc1)n2[C@@H]1O[C@H](COP(=O)(O)O)[C@@H](O)[C@H]1O (some centres undefined)	UniProtKB O94759	inactive
CCCCCCNc1c(NC[C@H]2O[C@@H](n3cnc4c(N)ncnc43)[C@H](O)[C@@H]2O)c(=O)c1=O	UniProtKB O94759	inactive
Nc1ncnc2c1ncn2[C@@H]1O[C@H](CNc2c(NC3CCCC3)c(=O)c2=O)[C@@H](O)[C@H]1O	UniProtKB O94759	inactive
Nc1ncnc2c1nc(-c1ccccc1)n2[C@@H]1O[C@H](COP(=O)(O)OP(=O)(O)OC2CCCC2)[C@@H](O)[C@H]1O	UniProtKB O94759	active

----------
- SUBJECT OF TEST: Transient receptor potential cation channel subfamily M member 2 (Homo sapiens, UniProt O94759)
- ASSAY: Antagonist activity at human TRPM2 expressed in HEK293 cells assessed as inhibition of ADPR-induced maximum outward potassium current at +15 mV by whole-cell patch-clamp electrophysiology
- Assay type: cell-based
- CONDITION SUMMARY: read-out: IC50
pIC50: −log10 of the molar value.
MEASURE NAME: pIC50

MOLECULE	MEASURE NAME	REPORTED MEASUREMENT
CC(=O)c1cccc(-c2nc3c(N)ncnc3n2[C@@H]2O[C@H](COP(=O)(O)OP(=O)(O)OC[C@H]3OC(O)[C@H](O)[C@@H]3O)[C@@H](O)[C@H]2O)c1 (stereo partly specified)	pIC50	4.31
Nc1ncnc2c1nc(-c1ccccc1)n2[C@@H]1O[C@H](COP(=O)(O)OP(=O)(O)OC[C@H]2OC(O)[C@H](O)[C@@H]2O)[C@@H](O)[C@H]1O (stereo partly specified)	pIC50	4.96
Nc1ncnc2c1nc(Br)n2[C@@H]1O[C@H](COP(=O)(O)OP(=O)(O)OC[C@H]2OC(O)[C@H](O)[C@@H]2O)[C@@H](O)[C@H]1O (stereo partly specified)	pIC50	3.52
Nc1ncnc2c1nc(-c1ccccc1)n2[C@H]1C[C@H](O)[C@@H](COP(=O)(O)OP(=O)(O)OC[C@H]2OC(O)[C@H](O)[C@@H]2O)O1 (stereo partly specified)	pIC50	5.52
Nc1ncnc2c1nc(-c1ccsc1)n2[C@@H]1O[C@H](COP(=O)(O)OP(=O)(O)OC[C@H]2OC(O)[C@H](O)[C@@H]2O)[C@@H](O)[C@H]1O (stereo partly specified)	pIC50	4.29
Nc1ncnc2c1nc(-c1ccccc1)n2[C@@H]1O[C@H](COP(=O)(O)OP(=O)(O)OC2CCCC2)[C@@H](O)[C@H]1O	pIC50	4.82
